Just for reference, patent US9403829B2 is where these values come from.

# assay.overview: Pharmacokinetics of the metabolite produced in vivo after administration of 7.5-60 mg Compound A
# test.conditions: human, 60 mg, day 1 of administration of about 60 mg of Compound A
metric.name: Cmax (ng/mL)
Return type: number; implicit unit ng/mL.

Query: Cmax; subject: CC(C)(O)c1ccc(-c2cnc3c(n2)N([C@H]2CC[C@H](O)CC2)C(=O)CN3)cn1 [O-Desmethyl metabolite]
1440

---

# assay.overview: Pharmacokinetics of the metabolite produced in vivo after administration of 7.5-60 mg Compound A
# test.conditions: human, 15 mg, on day (number not given) of once a day administration of about 15 mg of Compound A
metric.name: AUC(0-inf) (ng·h/mL)
Return type: number; implicit unit ng·h/mL.

Query: AUC(0-inf); subject: CC(C)(O)c1ccc(-c2cnc3c(n2)N([C@H]2CC[C@H](O)CC2)C(=O)CN3)cn1 [O-Desmethyl metabolite]
9750

---

# assay.overview: Pharmacokinetics of the metabolite produced in vivo after administration of 7.5-60 mg Compound A
# test.conditions: human, 15 mg, on day (number not given) of once a day administration of about 15 mg of Compound A, read-out: AUC0-24
# Experimental: In certain embodiments, the pharmacokinetic parameters in connection with the metabolite of Compound A produced via administration of 7.5 mg, 15 mg, 30 mg, 45 mg and 60 mg of Compound A are obtained using the protocol set forth in Section 5.2.1 (paragraphs [00497]-[00520]) of U.S. provisional application No. 61/653,436, filed May 31, 2012, which is incorporated by reference herein in its entirety. […]
metric.name: AUC(0-t) (ng·h/mL)
Return type: number; implicit unit ng·h/mL.

Query: AUC(0-t); subject: CC(C)(O)c1ccc(-c2cnc3c(n2)N([C@H]2CC[C@H](O)CC2)C(=O)CN3)cn1 [O-Desmethyl metabolite]
5680

---

# assay.overview: Pharmacokinetics of the metabolite produced in vivo after administration of 7.5-60 mg Compound A
# test.conditions: human, 60 mg, day 15 of once a day administration of about 60 mg of Compound A
metric.name: Cmax (ng/mL)
Return type: number; implicit unit ng/mL.

Query: Cmax; subject: CC(C)(O)c1ccc(-c2cnc3c(n2)N([C@H]2CC[C@H](O)CC2)C(=O)CN3)cn1 [O-Desmethyl metabolite]
2520

---

# assay.overview: Pharmacokinetics of the metabolite produced in vivo after administration of 7.5-60 mg Compound A
# test.conditions: human, day 15 of once a day administration of about 30 mg of Compound A, read-out: Ctrough
metric.name: concentration at 15 day
Mention the unit after the number when you answer.

Query: concentration at 15 day; subject: CC(C)(O)c1ccc(-c2cnc3c(n2)N([C@H]2CC[C@H](O)CC2)C(=O)CN3)cn1 [O-Desmethyl metabolite]
1100 ng/mL

---

# assay.overview: Pharmacokinetics of the metabolite produced in vivo after administration of 7.5-60 mg Compound A
# test.conditions: human, 60 mg, day 1 of administration of about 60 mg of Compound A, read-out: AUC0-24
metric.name: AUC(0-t) (ng·h/mL)
Return type: number; implicit unit ng·h/mL.

Query: AUC(0-t); subject: CC(C)(O)c1ccc(-c2cnc3c(n2)N([C@H]2CC[C@H](O)CC2)C(=O)CN3)cn1 [O-Desmethyl metabolite]
21500

---

# Tmax per entry
# assay.overview: Phase 1 food effect study (Part 2), single 20-mg oral dose of Compound A tablet, fed vs fasted
# Assay type: in vivo, human
# test.conditions: male, human, plasma, po, 20 mg, Fed (n = 11, high fat meal), single 20-mg oral dose of Compound A tablet; median; read-out: Tmax
Return type: number; implicit unit h.

Query: Tmax; subject: CO[C@H]1CC[C@H](N2C(=O)CNc3ncc(-c4ccc(C(C)(C)O)nc4)nc32)CC1
3

Query: Tmax; subject: CC(C)(O)c1ccc(-c2cnc3c(n2)N([C@H]2CC[C@H](O)CC2)C(=O)CN3)cn1 [O-Desmethyl metabolite]
6
